- TEST TARGET: T1, dimeric human PRLR (hPRLR.mFc; SEQ ID NO:402) (Homo sapiens, UniProt P16471)
- T1 construct: dimeric (hPRLR.mFc)
- T1 sequence (P16471 with tags, fused parts or gaps): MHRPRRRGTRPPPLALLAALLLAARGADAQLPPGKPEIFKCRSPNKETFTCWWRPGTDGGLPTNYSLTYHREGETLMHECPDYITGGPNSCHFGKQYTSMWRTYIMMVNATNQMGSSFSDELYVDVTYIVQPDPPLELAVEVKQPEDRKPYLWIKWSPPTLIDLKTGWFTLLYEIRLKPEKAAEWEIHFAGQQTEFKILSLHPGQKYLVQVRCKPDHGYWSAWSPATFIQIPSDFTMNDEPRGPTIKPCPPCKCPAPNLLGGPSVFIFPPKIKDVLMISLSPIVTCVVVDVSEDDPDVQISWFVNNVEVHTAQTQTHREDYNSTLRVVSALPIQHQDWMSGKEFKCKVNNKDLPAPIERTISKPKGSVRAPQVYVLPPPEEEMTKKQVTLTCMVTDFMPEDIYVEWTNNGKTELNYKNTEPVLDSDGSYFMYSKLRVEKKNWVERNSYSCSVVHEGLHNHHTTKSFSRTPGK
- TEST METHOD NOTES: Surface plasmon resonance (Biacore T200), antibody-capture format
- Type: binding
- TEST SETTINGS: 37° C., analyte hPRLR.mFc
kd overview
VALUE KIND: kd (s⁻¹)

{"MOLECULE": "H1H6960N: anti-PRLR antibody, human IgG1 Fc form of H2M6960N of Table 1; HCVR/LCVR SEQ ID NOs 322/330 (antibody, V domains shown, human IgG1 Fc) VH: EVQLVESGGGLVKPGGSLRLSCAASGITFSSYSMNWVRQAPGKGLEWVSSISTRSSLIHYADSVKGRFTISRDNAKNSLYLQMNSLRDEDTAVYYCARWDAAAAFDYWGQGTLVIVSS VL: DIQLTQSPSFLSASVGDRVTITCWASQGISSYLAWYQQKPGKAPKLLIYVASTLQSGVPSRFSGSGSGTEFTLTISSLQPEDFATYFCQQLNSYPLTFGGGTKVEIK", "VALUE KIND": "kd", "READOUT UNIT": "s⁻¹", "RESULT": 0.000147}
{"MOLECULE": "H1H6966N: anti-PRLR antibody, human IgG1 Fc form of H2M6966N of Table 1; HCVR/LCVR SEQ ID NOs 338/346 (antibody, V domains shown, human IgG1 Fc) VH: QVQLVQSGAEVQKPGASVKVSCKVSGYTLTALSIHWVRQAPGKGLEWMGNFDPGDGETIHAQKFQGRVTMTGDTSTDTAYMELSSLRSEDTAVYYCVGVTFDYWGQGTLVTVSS VL: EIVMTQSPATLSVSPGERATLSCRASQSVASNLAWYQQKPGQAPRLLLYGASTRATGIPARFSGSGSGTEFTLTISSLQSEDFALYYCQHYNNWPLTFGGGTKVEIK", "VALUE KIND": "kd", "READOUT UNIT": "s⁻¹", "RESULT": 0.000127}
{"MOLECULE": "H1H6959N2: anti-PRLR antibody, human IgG1 Fc form of H2M6959N2 of Table 1; HCVR/LCVR SEQ ID NOs 306/314 (antibody, V domains shown) VH: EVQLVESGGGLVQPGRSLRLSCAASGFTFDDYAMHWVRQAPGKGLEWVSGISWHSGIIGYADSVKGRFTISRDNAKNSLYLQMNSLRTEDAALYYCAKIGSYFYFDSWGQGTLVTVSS VL: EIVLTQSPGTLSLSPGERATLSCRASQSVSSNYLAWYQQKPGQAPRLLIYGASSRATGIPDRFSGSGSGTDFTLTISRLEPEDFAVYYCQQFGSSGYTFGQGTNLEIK", "VALUE KIND": "kd", "READOUT UNIT": "s⁻¹", "RESULT": 0.0023}
{"MOLECULE": "H1H6792P: fully human anti-PRLR antibody, human IgG1 Fc; HCVR/LCVR SEQ ID NOs 130/138 (antibody, V domains shown) VH: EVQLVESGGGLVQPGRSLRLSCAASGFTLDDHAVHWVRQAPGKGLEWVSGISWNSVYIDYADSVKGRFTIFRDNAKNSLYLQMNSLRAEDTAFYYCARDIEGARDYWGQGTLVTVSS VL: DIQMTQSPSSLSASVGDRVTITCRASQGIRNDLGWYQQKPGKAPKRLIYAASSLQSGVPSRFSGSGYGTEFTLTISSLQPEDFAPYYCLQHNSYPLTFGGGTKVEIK", "VALUE KIND": "kd", "READOUT UNIT": "s⁻¹", "RESULT": 0.000176}
{"MOLECULE": "H1H6782P: fully human anti-PRLR antibody, non-blocking; HCVR/LCVR SEQ ID NOs 66/74 (antibody, V domains shown) VH: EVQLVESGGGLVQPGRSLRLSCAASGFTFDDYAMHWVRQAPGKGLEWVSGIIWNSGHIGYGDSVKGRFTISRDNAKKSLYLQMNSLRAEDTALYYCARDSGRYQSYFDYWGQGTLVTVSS VL: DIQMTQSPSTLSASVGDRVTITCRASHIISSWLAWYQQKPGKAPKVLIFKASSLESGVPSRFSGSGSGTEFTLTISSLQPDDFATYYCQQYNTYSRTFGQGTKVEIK", "VALUE KIND": "kd", "READOUT UNIT": "s⁻¹", "RESULT": 0.00013}
{"MOLECULE": "H1H6774P: fully human anti-PRLR antibody, human IgG1 Fc; HCVR/LCVR SEQ ID NOs 34/42 (antibody, V domains shown) VH: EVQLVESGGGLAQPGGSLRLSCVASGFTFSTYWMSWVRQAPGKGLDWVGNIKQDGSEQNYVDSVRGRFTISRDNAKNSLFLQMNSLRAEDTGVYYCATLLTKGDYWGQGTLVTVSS VL: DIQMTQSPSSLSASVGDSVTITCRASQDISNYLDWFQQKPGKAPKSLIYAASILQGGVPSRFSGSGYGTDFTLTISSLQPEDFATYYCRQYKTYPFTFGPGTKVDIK", "VALUE KIND": "kd", "READOUT UNIT": "s⁻¹", "RESULT": 0.000194}
{"MOLECULE": "H1H6765P: fully human anti-PRLR antibody, human IgG1 Fc; HCVR/LCVR SEQ ID NOs 18/26 (antibody, V domains shown) VH: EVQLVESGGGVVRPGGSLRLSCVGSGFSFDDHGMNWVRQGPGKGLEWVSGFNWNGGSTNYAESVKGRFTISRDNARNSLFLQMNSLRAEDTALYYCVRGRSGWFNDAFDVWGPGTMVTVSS VL: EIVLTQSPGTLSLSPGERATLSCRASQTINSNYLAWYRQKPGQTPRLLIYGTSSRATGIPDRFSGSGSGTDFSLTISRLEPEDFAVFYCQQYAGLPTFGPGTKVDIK", "VALUE KIND": "kd", "READOUT UNIT": "s⁻¹", "RESULT": 0.000103}
{"MOLECULE": "H1H6967N: anti-PRLR antibody, human IgG1 Fc form of H2M6967N of Table 1; HCVR/LCVR SEQ ID NOs 354/362 (antibody, V domains shown, human IgG1 Fc) VH: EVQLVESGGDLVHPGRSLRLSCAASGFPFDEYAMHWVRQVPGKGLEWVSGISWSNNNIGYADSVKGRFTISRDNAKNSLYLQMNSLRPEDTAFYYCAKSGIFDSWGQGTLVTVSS VL: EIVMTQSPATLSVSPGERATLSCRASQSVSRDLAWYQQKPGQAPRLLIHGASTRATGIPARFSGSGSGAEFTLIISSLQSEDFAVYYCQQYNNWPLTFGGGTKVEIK", "VALUE KIND": "kd", "READOUT UNIT": "s⁻¹", "RESULT": "9.73e-05"}
